Target: Aminopeptidase N (Plasmodium falciparum (isolate 3D7)) (UniProt O96935)
Sequence (O96935 whole entry, looked up): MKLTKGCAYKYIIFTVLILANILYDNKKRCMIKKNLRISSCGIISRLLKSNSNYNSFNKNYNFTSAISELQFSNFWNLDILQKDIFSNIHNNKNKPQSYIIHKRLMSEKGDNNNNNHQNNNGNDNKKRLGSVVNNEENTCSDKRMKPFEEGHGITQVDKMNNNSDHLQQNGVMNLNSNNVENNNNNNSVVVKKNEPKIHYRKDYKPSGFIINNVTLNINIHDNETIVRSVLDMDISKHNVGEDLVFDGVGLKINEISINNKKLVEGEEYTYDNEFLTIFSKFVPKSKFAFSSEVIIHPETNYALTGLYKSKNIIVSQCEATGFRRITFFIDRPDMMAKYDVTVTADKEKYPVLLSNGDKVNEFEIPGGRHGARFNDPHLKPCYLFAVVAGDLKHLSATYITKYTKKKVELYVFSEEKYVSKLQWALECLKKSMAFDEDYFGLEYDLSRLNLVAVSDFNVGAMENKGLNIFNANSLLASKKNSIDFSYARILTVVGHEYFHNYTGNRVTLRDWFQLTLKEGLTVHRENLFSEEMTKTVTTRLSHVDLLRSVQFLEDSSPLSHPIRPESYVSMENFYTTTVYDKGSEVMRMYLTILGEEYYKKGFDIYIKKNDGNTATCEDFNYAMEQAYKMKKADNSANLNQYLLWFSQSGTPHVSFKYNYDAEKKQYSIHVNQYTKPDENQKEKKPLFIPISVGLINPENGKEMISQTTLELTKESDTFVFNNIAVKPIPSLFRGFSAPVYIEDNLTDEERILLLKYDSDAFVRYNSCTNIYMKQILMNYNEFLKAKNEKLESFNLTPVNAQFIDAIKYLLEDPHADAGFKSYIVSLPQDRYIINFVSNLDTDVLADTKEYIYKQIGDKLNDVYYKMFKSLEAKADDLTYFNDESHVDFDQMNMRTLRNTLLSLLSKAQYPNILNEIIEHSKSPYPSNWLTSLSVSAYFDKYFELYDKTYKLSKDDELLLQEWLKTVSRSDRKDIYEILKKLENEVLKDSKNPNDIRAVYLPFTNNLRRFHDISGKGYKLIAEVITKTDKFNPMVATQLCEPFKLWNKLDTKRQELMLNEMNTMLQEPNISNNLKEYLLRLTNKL
Assay: malaria alanyl aminopeptidase activity blockers – biochemical, fluorogenic H-Leu-NHMec substrate, 1536-well (AID 1445);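 further: plate controls were DMSO full reaction for no effect and no enzyme background for full effect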
Conditions: recombinant M1AAP, H-Leu-NHMec fluorogenic kinetic assay; at 30 µM, hits give high values unless noted
In all, about 220,000 compounds went through this assay and about 910 (0.41%) were called active. Shown is part of a subset that was picked to be rich in actives. Potency and affinity values are given separately.
Experimental readout: inhibition (%)
Answers are plain numbers, in %.

// worked examples, inhibition included
INSERT INTO assay_data (compound, study_system, experimental_readout, readout_value) VALUES
  ('Cc1ccccc1Cn1c(Cc2ccccc2)nc2ccccc21', 'Aminopeptidase N (Plasmodium falciparum (isolate 3D7)) (UniProt O96935)', 'inhibition', -1.18),
  ('O=C(COc1cc(F)ccc1[N+](=O)[O-])Nc1ccc(N2CCOCC2)cc1', 'Aminopeptidase N (Plasmodium falciparum (isolate 3D7)) (UniProt O96935)', 'inhibition', 1.97),
  ('Cc1csc(NC(=O)CSc2nc(C(C)C)nc3c2c(=O)n(C)c(=O)n3C)n1', 'Aminopeptidase N (Plasmodium falciparum (isolate 3D7)) (UniProt O96935)', 'inhibition', -1.73),
  ('CCOC(=O)Cc1nnc(NC(=O)C(CC)Sc2nc(C)cc(=O)[nH]2)s1 (stereo not drawn)', 'Aminopeptidase N (Plasmodium falciparum (isolate 3D7)) (UniProt O96935)', 'inhibition', 11),
  ('COc1ccc(S(=O)(=O)N(C)C)cc1NCC(=O)Nc1ccc(Br)cc1F', 'Aminopeptidase N (Plasmodium falciparum (isolate 3D7)) (UniProt O96935)', 'inhibition', 7.15),
  ('Cc1cc(-c2nnc(SCC(=O)Nc3nc(-c4ccccc4)cs3)o2)no1', 'Aminopeptidase N (Plasmodium falciparum (isolate 3D7)) (UniProt O96935)', 'inhibition', 17.1);

Okay, here is my list. What is inhibition for each of these?
1. O=C1c2ccccc2C(=O)N1Cc1nc2ccccc2o1
2. CC1(C)CC(=O)C(C=NCCN2CCN(C(=S)NC3CCCCC3)CC2)=C(O)C1
3. COC(=O)c1ccc(-n2nnnc2SC)cc1
4. CC1(C)CC(=O)c2c(oc3ccc(NS(=O)(=O)c4cccc5cccnc45)cc23)C1

Solution:
[13, -1.18, 26.3, 3.99]

Okay, here is my list. What is inhibition for each of these?
1. O=C1c2ccccc2C(=O)N1c1ccc(-c2nc3ccccc3o2)cc1
2. CSc1nnnn1-c1ccc(C(=O)O)cc1
3. CSc1nnc(-c2cc(-c3ccc(C)cc3)nc3ccccc23)o1
4. CSc1nnc(-c2cc[n+](C)cc2)n1CCO
5. COc1ccc(-c2cc(-c3nnc(-c4ccncc4)o3)c3ccccc3n2)cc1

Solution:
1: -1.24; 2: 5.73; 3: -2.26; 4: -2.01; 5: 7.37

Okay, here is my list. What is inhibition for each of these?
1. CCOC(=O)CNc1nc(Cl)nc(NC(C)(C)C)n1
2. COc1cc2ccccc2cc1C(=O)NC(=S)Nc1cccc(C(=O)O)c1C
3. O=C(/C=C/c1ccccc1Cl)N(Cc1ccccc1)C1CCS(=O)(=O)C1 (stereo not drawn)

Solution:
1. 5.43
2. 8.01
3. 0.49

Okay, here is my list. What is inhibition for each of these?
1. O=C(O)C(Cc1ccccc1)N1C(=O)/C(=C/c2ccccc2)SC1=S (stereo not drawn)
2. C=CCNc1nc2ccccc2c(=O)[nH]1
3. Cc1ccc(Cn2c(O)c(N=O)c3ccccc32)cc1
4. CSc1ccccc1NC(=O)CN(C)CC(=O)NCc1ccccc1
5. CC12CCC(C/C1=N\N=C1\NC(=O)/C(=C\c3cccc(Br)c3)S1)C2(C)C (stereo not drawn)

Solution:
18.4
7.55
4.37
-1.28
6.04

###

Target: Aminopeptidase N (Plasmodium falciparum (isolate 3D7)) (UniProt O96935)
Assay: malaria alanyl aminopeptidase activity blockers – biochemical, fluorogenic H-Leu-NHMec substrate, 1536-well (AID 1445);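 further: plate controls were DMSO full reaction for no effect and no enzyme background for full effect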
Details: recombinant M1AAP, H-Leu-NHMec fluorogenic kinetic assay; at 30 µM
In all, about 220,000 compounds went through this assay and about 910 (0.41%) were called active.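 Rule for the calls: active = primary inhibition above the hit cutoff, then over 50% inhibition at one or more dose response concentrations (cut at about 23% in these data, passing the limit was not always enough); inconclusive = conflicting primary data, or primary hits not chosen for dose response; inactive = low primary inhibition, or under 50% at every dose.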 The entries come from a sample that favours actives as a whole. Measured potencies and affinities stand elsewhere.
Answer with one of the outcomes given here: active, inactive

INSERT INTO assay_data (compound, cat) VALUES
  ('Cc1ccc(N(CC(=O)NC(C)(C)C)C(=O)CS(=O)CC(=O)Nc2ccc3c(c2)OCO3)cc1 (stereo not given)', 'inactive');

Exercise: Tell me the recorded outcome of this test for Oc1ccc(C2=Nn3c(nnc3-c3ccco3)SC2)cc1O .
Solution: active

Exercise: Tell me the recorded outcome of this test for N#C/C(=C\c1cn[nH]c1-c1ccccc1)C(=O)NC1CCCCCC1 .
Solution: inactive

###

Target: Aminopeptidase N (Plasmodium falciparum (isolate 3D7)) (UniProt O96935)
Assay: malaria alanyl aminopeptidase activity blockers – biochemical, fluorogenic H-Leu-NHMec substrate, 1536-well (AID 1445);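 further: plate controls were DMSO full reaction for no effect and no enzyme background for full effect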
Conditions: recombinant M1AAP, H-Leu-NHMec fluorogenic kinetic assay; at 30 µM, hits give high values unless noted
In all, about 220,000 compounds went through this assay and about 910 (0.41%) were called active. The list comes from a sample in which actives are over-represented; it also holds close analogues and randomly drawn compounds. Entries with a potency or affinity are not part of this list.
Experimental readout: inhibition

// worked examples, inhibition included
INSERT INTO measurements (mol, experimental_readout, readout_value) VALUES
  ('Oc1ccc(Cl)cc1C=Nc1ccccc1Br', 'inhibition', '1.39% (inactive)'),
  ('CC(=O)c1sc(-c2ccccc2)cc1NS(=O)(=O)c1ccccc1', 'inhibition', '-0.36% (inactive)'),
  ('COC(C[C@@H](O)CC(=O)[C@@H](C)OCc1ccccc1)OC', 'inhibition', '-6.94% (inactive)'),
  ('O=C(CCCN1C(=O)/C(=C/c2ccccc2Cl)SC1=S)NNC(=O)c1cccnc1', 'inhibition', '2.83% (inactive)'),
  ('Oc1ccc(Cl)cc1N=Cc1sc2ccccc2c1Cl', 'inhibition', '21% (inactive)');

Exercise: Using the record for CCN1CCN(C(=O)C2CCN(Cc3cc(Cl)ccc3O)CC2)CC1 , report its inhibition.
Solution: 0.1% (inactive)

###

Molecular target: Aminopeptidase N (Plasmodium falciparum (isolate 3D7))
Experiment: malaria alanyl aminopeptidase activity blockers – biochemical, fluorogenic H-Leu-NHMec substrate, 1536-well (AID 1445);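 further: plate controls were DMSO full reaction for no effect and no enzyme background for full effect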
Settings: recombinant M1AAP, H-Leu-NHMec fluorogenic kinetic assay; at 30 µM
About 910 (0.41%) of roughly 220,000 compounds were called active.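 Rule for the calls: active = primary inhibition above the hit cutoff, then over 50% inhibition at one or more dose response concentrations (cut at about 23% in these data, passing the limit was not always enough); inconclusive = conflicting primary data, or primary hits not chosen for dose response; inactive = low primary inhibition, or under 50% at every dose.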 Only a selection was taken, and actives are over-represented in it overall. Entries with a potency or affinity are not part of this list.
Answer with one of the outcomes given here: active, inactive

INSERT INTO assay_data (molecule, cat) VALUES
  ('CCCS(=O)(=O)NCc1ccc2c(c1)cc(C)n2C', 'inactive'),
  ('CCCn1c(OC)nc2c1c(=O)n(C)c(=O)n2C', 'inactive'),
  ('CCOP(=O)(OCC)C(Nc1ccccc1)c1ccco1 (configuration not stated)', 'inactive');

Exercise: Tell me the recorded outcome of this test for COCCNC(=O)c1cc2oc3ccccc3c2n1C .
Solution: inactive

Exercise: Tell me the recorded outcome of this test for CCCc1nnc(NC(=O)CCC(=O)N2CCN(S(=O)(=O)c3ccc(C)cc3)CC2)s1 .
Solution: inactive

Exercise: Tell me the recorded outcome of this test for CCCC(=O)c1cn(CC(=O)OC)c2ccccc12 .
Solution: inactive

Exercise: Tell me the recorded outcome of this test for CCCc1ccc(-c2ccc(F)c(N)c2)nc1 .
Solution: inactive

Exercise: Tell me the recorded outcome of this test for CCCCOc1ccc(CC(=O)NCC(=O)O)cc1 .
Solution: inactive

Exercise: Tell me the recorded outcome of this test for O=C(O)CSc1cc(NS(=O)(=O)c2cccc([N+](=O)[O-])c2)c2ccccc2c1O .
Solution: inactive

Exercise: Tell me the recorded outcome of this test for CC1=CC2=NC(=O)CC(C)(C(=O)N(CC(=O)NC(C)C)C3CCCC3)N2C=C1 (configuration not stated) .
Solution: inactive

Exercise: Tell me the recorded outcome of this test for COc1ccc(/C=N/NC(=O)c2[nH]c3ccc(Br)cc3c2-c2ccccc2)cc1 .
Solution: inactive

Exercise: Tell me the recorded outcome of this test for O=C(C(=O)N1CCN(c2cccc(Cl)c2)CC1)c1c[nH]c2ccccc12 .
Solution: inactive

Exercise: Tell me the recorded outcome of this test for O=c1[nH]c2ccc(NS(=O)(=O)c3ccc(Cl)cc3)cc2[nH]1 .
Solution: inactive

Exercise: Tell me the recorded outcome of this test for COC(=O)c1cc(NS(=O)(=O)c2ccc3c(c2)CCC(=O)N3)cc(C(=O)OC)c1 .
Solution: inactive

Exercise: Tell me the recorded outcome of this test for COC(=O)c1cc(C(=O)OC)cc(N2C(=O)CC(NNC(=O)c3ccccc3Br)C2=O)c1 (configuration not stated) .
Solution: inactive

Exercise: Tell me the recorded outcome of this test for CCCCCCC(=O)N(O)C1CC(=O)N(Cc2ccccc2)C1=O (configuration not stated) .
Solution: active

Exercise: Tell me the recorded outcome of this test for CCCOc1nc2c(c(=O)n(C)c(=O)n2C)n1C .
Solution: inactive

Exercise: Tell me the recorded outcome of this test for Cn1c(=O)c2cc(S(=O)(=O)Nc3cc(C(=O)O)cc(C(=O)O)c3)ccc2n(C)c1=O .
Solution: inactive

Exercise: Tell me the recorded outcome of this test for O=C(CS)Nc1ccc2ccccc2c1 .
Solution: inactive

Exercise: Tell me the recorded outcome of this test for CCOC(=O)c1[nH]c2ccc(OC)cc2c1NC(=O)c1cccc(OC)c1 .
Solution: inactive

Exercise: Tell me the recorded outcome of this test for NS(=O)(=O)c1ccc(NC(=S)NC(=O)/C=C/c2ccco2)cc1 .
Solution: inactive

Exercise: Tell me the recorded outcome of this test for Cc1ccc(C2C(=O)N(C3CCC(C)CC3)CC(=O)N2C2CC2)cc1 (configuration not stated) .
Solution: inactive

Exercise: Tell me the recorded outcome of this test for O=S(=O)(c1ccc(F)cc1)N1CCN=C1SCc1cccnc1 .
Solution: inactive

// provenance: PubChem BioAssay AID1445
